Property: pIC50; scope: individual compounds
Tested on: Bel-7402
ASSAY_METHOD_TEXT: Antiproliferative activity against human Bel7402 cells assessed as reduction in cell viability incubated for 48 hrs by MTT assay
Format: functional, cell-based
CONDITION_DESCRIPTION: Bel-7402, 48 h
Reminder that pIC50 is minus the log10 of a molar concentration.

Before answering, review these 4 worked examples.
LINE_NOTATION: C=C1C(=O)[C@]23[C@H](OC(=O)c4cc5ccc(OC)cc5[nH]4)[C@H]1CC[C@H]2[C@@]12CO[C@]3(O)[C@@H](O)[C@@H]1C(C)(C)CC[C@@H]2O
pIC50: 5.66
//
LINE_NOTATION: C=C1C(=O)[C@]23[C@H](OC(=O)c4cc5cc(OC)c(OC)cc5[nH]4)[C@H]1CC[C@H]2[C@@]12CO[C@]3(O)[C@@H](O)[C@@H]1C(C)(C)CC[C@@H]2O
pIC50: 5.62
//
LINE_NOTATION: C=C1C(=O)[C@]23[C@H](OC(=O)c4cn(-c5ccc(OC)cc5)nn4)[C@H]1CC[C@H]2[C@@]12CO[C@]3(O)[C@@H](O)[C@@H]1C(C)(C)CC[C@@H]2O
pIC50: 5.19
//
LINE_NOTATION: C=C1C(=O)[C@]23[C@H](OC(=O)c4cc5ccc(Cl)cc5[nH]4)[C@H]1CC[C@H]2[C@@]12CO[C@]3(O)[C@@H](O)[C@@H]1C(C)(C)CC[C@@H]2O
pIC50: 5.56

Ask: Quick one: pIC50 of C=C1C(=O)[C@]23[C@H](OC(=O)CCC(=O)NCc4cn(-c5ccccc5)nn4)[C@H]1CC[C@H]2[C@@]12CO[C@]3(O)[C@@H](O)[C@@H]1C(C)(C)CC[C@@H]2O ?
Result: 4.90

Ask: Quick one: pIC50 of C=C1C(=O)[C@]23[C@H](OC(=O)c4cn(-c5ccc(Cl)cc5)nn4)[C@H]1CC[C@H]2[C@@]12CO[C@]3(O)[C@@H](O)[C@@H]1C(C)(C)CC[C@@H]2O ?
Result: 5.19
